subjectOfTest: T1, human BACE1 ECD
T1 construct: analyte of the Octet assay (200 nM) and enzyme of the first short substrate assay; also called human BACE1 extracellular domain
protocolDetails: Octet, pH 5.0;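 note: antibodies captured on anti-human capture sensor tips, dissociation monitored in PBS with BSA buffer, kinetics fitted with a one-to-one binding model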
Kd listing for selected binders.
Express it in nM; write the number only.

Solved cases (2 shown):
binder	recordedNumber
5888 (antibody, V domains shown, anti-BACE1 IgG) VH: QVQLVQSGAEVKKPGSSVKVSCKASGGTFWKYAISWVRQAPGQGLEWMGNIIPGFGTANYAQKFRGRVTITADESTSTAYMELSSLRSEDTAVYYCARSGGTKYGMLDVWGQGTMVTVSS VL: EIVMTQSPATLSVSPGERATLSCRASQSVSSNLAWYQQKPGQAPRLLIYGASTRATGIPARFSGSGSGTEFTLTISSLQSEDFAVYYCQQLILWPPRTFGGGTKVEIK	1.8
5982 (antibody, V domains shown, anti-BACE1 IgG) VH: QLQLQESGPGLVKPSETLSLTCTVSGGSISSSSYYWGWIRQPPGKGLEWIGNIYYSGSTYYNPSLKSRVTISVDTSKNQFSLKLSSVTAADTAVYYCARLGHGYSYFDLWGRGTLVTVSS VL: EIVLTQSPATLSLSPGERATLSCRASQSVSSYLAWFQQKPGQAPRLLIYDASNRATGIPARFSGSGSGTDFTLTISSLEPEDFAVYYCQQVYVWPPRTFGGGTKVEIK	2.3

Prompt: Dear colleague, I am looking for the recorded Kd of the following binder: 5894 (antibody, V domains shown, anti-BACE1 IgG) VH: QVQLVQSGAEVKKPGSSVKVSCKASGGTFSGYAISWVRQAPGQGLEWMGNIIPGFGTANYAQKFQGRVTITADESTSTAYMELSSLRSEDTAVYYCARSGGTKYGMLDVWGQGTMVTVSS VL: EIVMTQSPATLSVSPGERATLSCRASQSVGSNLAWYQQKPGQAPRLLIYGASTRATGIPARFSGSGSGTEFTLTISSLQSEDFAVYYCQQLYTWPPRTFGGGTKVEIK
Completion: 0.3
